The origin of these recorded values is PubChem BioAssay.

Tested on: wheat germ agglutinin (Triticum aestivum), Alexa647-labelled
Assay: wheat germ agglutinin binders on compound microarrays, profiling panel, artefact control for SMM control-protein annotation, biochemical, small-molecule microarray, 635/667 nm fluorescence (AID 1140);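 also: score merges 667 nm feature emission with signal to noise over triplicate slides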
Details: WGA-A647 binding, 635 nm fluorescence, higher = more signal
The following compounds are listed with their measured composite z-score values.
Just the number, please, no unit after it.

INSERT INTO measurements (compound, measured_attribute, recorded_number) VALUES
  ('C=CC[C@]1(C(=O)N2CCCCC2)N=C(c2ccc(OCCCO)cc2)O[C@H]1c1ccccc1N=[N+]=[N-]', 'composite z-score', 1.37),
  ('COC(=O)[C@@]1(Cc2ccc(OC)cc2)[C@H]2c3cc(C(=O)N(C)C)n(Cc4ccc(C)c(F)c4F)c3C[C@H]2CN1C(=O)c1ccccc1', 'composite z-score', 0.546),
  ('COC(=O)c1c(CC[C@@H](CO)NC(=O)N[C@H](Cn2cc(-c3cncn3C)nn2)C(C)C)oc(C(C)=O)c1C(=O)OC', 'composite z-score', -0.0889);

--- query ---
Prompt line: # return composite z-score for COC(=O)C1=CC(c2ccc(CO)cc2)=CC(c2cccs2)N(Cc2cccc(OC(F)(F)F)c2)C=C1C(=O)OC (centres undefined) , test system: wheat germ agglutinin (Triticum aestivum), Alexa647-labelled
Response line: 1.4
